What Kd was measured for each of the following?
- Test System: GDP-bound KRAS wild-type protein (Homo sapiens, UniProt P01116)
- Sequence (P01116 whole entry): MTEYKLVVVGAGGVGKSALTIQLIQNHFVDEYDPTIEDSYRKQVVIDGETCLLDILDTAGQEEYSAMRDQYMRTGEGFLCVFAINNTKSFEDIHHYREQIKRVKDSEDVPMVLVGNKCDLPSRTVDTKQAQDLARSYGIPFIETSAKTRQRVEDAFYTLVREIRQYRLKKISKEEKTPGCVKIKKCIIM
- Procedure Details: Binding to KRAS by surface plasmon resonance (SPR), Single Cycle Kinetics
- Measurement Setup: SPR Single Cycle Kinetics, GDP-bound KRAS wild-type protein, 1:1 binding model; read-out: KRAS KD
Where a SMILES comes first, the peptide text is derived from it. Bridges are numbered along the chain shown (N, C = ends). [ ]: non-standard residue; d: D form. The star is where a group is joined. hPhe(3-Cl-4-CF3) = N[C@@H](CCc1ccc(C(F)(F)F)c(Cl)c1)C(=O)O; NPrPhe(4-CF3) = CCCN[C@@H](Cc1ccc(C(F)(F)F)cc1)C(=O)O; NEtPhe(4-Me) = CCN[C@@H](Cc1ccc(C)cc1)C(=O)O; NMeGly(cPent) = CN[C@H](C(=O)O)C1CCCC1; Hyp = O=C(O)[C@@H]1C[C@@H](O)CN1; NMeD = CN[C@@H](CC(=O)O)C(=O)O; NMeL = CN[C@@H](CC(C)C)C(=O)O; Morpholide = C1CN(*)CCO1; NMeA = CN[C@@H](C)C(=O)O; NMeAib = CNC(C)(C)C(=O)O; Nle = CCCC[C@H](N)C(=O)O; Piperidide = C1CCN(*)CC1; Ac5c = NC1(C(=O)O)CCCC1; Aze = O=C(O)[C@@H]1CCN1; Sar = CNCC(=O)O
Return type: number; implicit unit nM.

# input molecule: CCCN(C)C(=O)[C@@H]1CC(=O)N(C)[C@@H](CC)C(=O)N[C@@H]([C@@H](C)CC)C(=O)N(C)CC(=O)N(C)[C@H]2C/C=C\CCN(C2=O)[C@@H](Cc2ccc(C(F)(F)F)cc2)C(=O)N(C)CC(=O)N[C@@H](CCc2cc(F)c(C(F)(F)F)c(F)c2)C(=O)N2C[C@H](OCC3CC3)C[C@H]2C(=O)NC2(CCC2)C(=O)N(C)[C@@H](C2CCCC2)C(=O)N1C [PP2913] ; wanted: its Kd
0.17

Which value of Kd has been reported for CCCC[C@@H]1NC(=O)[C@H](CCc2ccc(C(F)(F)F)c(Cl)c2)NC(=O)CN(C)C(=O)[C@H](Cc2ccc(C)cc2)N(CC)C(=O)[C@@H]2CCN2C(=O)[C@H](C)N(C)C(=O)[C@H]([C@@H](C)CC)NC(=O)[C@H](CC(C)C)N(C)C(=O)C[C@@H](C(=O)N2CCCCC2)N(C)C(=O)[C@H](CC(C)C)NC(=O)C(C)(C)N(C)C1=O [PP0048] ([NMeL]I[NMeA][Aze][NEtPhe(4-Me)][Sar][hPhe(3-Cl-4-CF3)][Nle][NMeAib]L[NMeD]-Piperidide; lactam N-11) in the records?
63

Given the molecule CCCN1C(=O)[C@@H]2CCN2C(=O)[C@H](C)N(C)C(=O)[C@H]([C@@H](C)CC)NC(=O)[C@H](CC(C)C)N(C)C(=O)C[C@@H](C(=O)N2CCOCC2)NC(=O)[C@H](C2CCCC2)N(C)C(=O)C2(CCCC2)NC(=O)[C@@H]2C[C@@H](OCC)CN2C(=O)[C@H](CCc2ccc(C(F)(F)F)c(Cl)c2)NC(=O)CN(C)C(=O)[C@@H]1Cc1ccc(C(F)(F)F)cc1 [PP0347] ([NMeL]I[NMeA][Aze][NPrPhe(4-CF3)][Sar][hPhe(3-Cl-4-CF3)][Hyp](Et)[Ac5c][NMeGly(cPent)]D-Morpholide; lactam N-11) , what is its reported Kd?
0.36

Ref: patent US20240158446A1
